Target: Human recombinant FAP (Homo sapiens, UniProt Q12884)
Sequence (Q12884 whole entry): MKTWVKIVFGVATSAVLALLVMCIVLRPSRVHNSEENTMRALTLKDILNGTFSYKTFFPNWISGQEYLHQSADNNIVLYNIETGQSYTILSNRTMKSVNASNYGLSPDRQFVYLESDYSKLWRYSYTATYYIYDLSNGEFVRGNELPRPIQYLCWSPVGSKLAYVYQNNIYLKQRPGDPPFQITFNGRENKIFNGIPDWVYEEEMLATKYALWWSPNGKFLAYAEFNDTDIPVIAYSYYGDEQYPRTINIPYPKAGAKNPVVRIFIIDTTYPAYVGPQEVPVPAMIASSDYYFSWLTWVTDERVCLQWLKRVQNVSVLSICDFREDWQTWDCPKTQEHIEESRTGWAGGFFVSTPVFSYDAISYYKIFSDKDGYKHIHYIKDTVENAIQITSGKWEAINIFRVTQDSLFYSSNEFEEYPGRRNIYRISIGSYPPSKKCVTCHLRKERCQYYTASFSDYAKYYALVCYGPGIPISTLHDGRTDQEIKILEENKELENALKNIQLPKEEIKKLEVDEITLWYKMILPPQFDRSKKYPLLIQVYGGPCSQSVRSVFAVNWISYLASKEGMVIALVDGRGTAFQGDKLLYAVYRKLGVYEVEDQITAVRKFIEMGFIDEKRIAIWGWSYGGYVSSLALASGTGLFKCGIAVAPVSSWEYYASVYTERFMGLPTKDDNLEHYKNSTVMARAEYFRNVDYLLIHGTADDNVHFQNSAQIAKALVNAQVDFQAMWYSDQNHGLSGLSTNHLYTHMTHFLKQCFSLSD
Assay: Surface plasmon resonance (Biacore) assay
We begin with a simple list: items and their reported Kd.
parameter: Kd

1) CCCCCC(=O)N[C@H]1CSCc2cc(CSCCNC(=O)CN3CCN(CC(=O)O)CCN(CC(=O)O)CCN(CC(=O)O)CC3)cc(c2)CSC[C@@H](C(=O)NCCC(N)=O)NC(=O)[C@H](Cc2ccccc2)NC(=O)[C@H](CCC(N)=O)NC(=O)[C@H]([C@@H](C)O)NC(=O)[C@@H]2CCCN2C(=O)[C@@H]2CCCN2C1=O : < 10 nM
2) CCCCCC(=O)N[C@H]1CSCc2cc(CSCCNC(=O)CN3CCN(CC(=O)O)CCN(CC(=O)O)CCN(CC(=O)O)CC3)cc(c2)CSC[C@@H](C(=O)NCC(=O)O)NC(=O)[C@H](Cc2ccccc2)NC(=O)[C@H](CCC(N)=O)NC(=O)[C@H]([C@@H](C)O)NC(=O)[C@@H]2CCCN2C(=O)[C@@H]2CCCN2C1 : < 10 nM
3) CCCCCC(=O)N[C@H]1CSCc2cc(CSCCNC(=O)CN3CCN(CC(=O)O)CCN(CC(=O)O)CCN(CC(=O)O)CC3)cc(c2)CSC[C@@H](C(=O)N[C@@H](CO)C(=O)O)NC(=O)[C@H](Cc2ccccc2)NC(=O)[C@H](CCC(N)=O)NC(=O)[C@H]([C@@H](C)O)NC(=O)[C@@H]2CCCN2C(=O)[C@@H]2CCCN2C1 : < 10 nM

====

We begin with a simple list: items and their reported remaining at 24 h, 9.8 µM.
Experiment: Plasma stability assay, mouse plasma
Assay type: in vitro ADME
Details: 24 h incubation, 37° C., read-out: % intact compound remaining after incubation, Mouse plasma
Numbered stars: 1 amine (or outer) side, 2 acyl side, 3 side chain; on linkers, the order of the positions; unused ones are H or OH. Bridge positions count the residues as written; N and C are the ends. Peptide text beside a SMILES is read from it. * marks the point of attachment. X4 = O=C1CN2CCN3CCN(CC(=O)N4CCN(Cc5cc(C[*:1])cc(C[*:2])c5)CC4)CCN(CC2)CC(=O)[O][In]([O]1)[O]C(=O)C3; Hexanoyl = CCCCCC(=O)*
parameter: remaining at 24 h, 9.8 µM (%)

1) CCCCCC(=O)N[C@H]1CSCc2cccc(c2)CSC[C@@H](C(=O)N[C@@H](CCCCNC(=O)CN2CCN(CC(=O)O)CCN(CC(=O)O)CCN(CC(=O)O)CC2)CC(=O)O)NC(=O)[C@H](Cc2ccccc2)NC(=O)[C@H](CCC(N)=O)NC(=O)[C@H]([C@@H](C)O)NC(=O)[C@@H]2CCCN2C(=O)[C@@H]2CCCN2C1=O [3BP-3397] : 92
2) CCCCCC(=O)N[C@H]1CSCc2cc(cc(CN3CCN(C(=O)CN4CCN5CCN6CCN(CC4)CC(=O)[O][In]([O]C(=O)C6)[O]C(=O)C5)CC3)c2)CSC[C@@H](C(=O)N[C@@H](CC(=O)O)C(N)=O)NC(=O)[C@H](Cc2ccccc2)NC(=O)[C@H](CCC(N)=O)NC(=O)[C@H]([C@@H](C)O)NC(=O)[C@@H]2CCCN2C(=O)[C@@H]2CCCN2C1=O [3BP-3590] (Hexanoyl-CPPTQFCD-NH2; linker 1-7 via X4) : 100
3) CCCCCC(=O)N[C@H]1CSCc2cc(CSCCNC(=O)CN3CCN4CCN5CCN(CC3)CC(=O)[O][Lu]([O]C(=O)C4)[O]C(=O)C5)cc(c2)CSC[C@@H](C(=O)O)NC(=O)[C@H](Cc2ccccc2)NC(=O)[C@H](CCC(N)=O)NC(=O)[C@H]([C@@H](C)O)NC(=O)[C@@H]2CCCN2C(=O)[C@@H]2CCCN2C1 [3BP-3624] : 100
